experimental_target: 5-HT6 (Homo sapiens, UniProt P50406)
Sequence (P50406 whole entry, species assumed): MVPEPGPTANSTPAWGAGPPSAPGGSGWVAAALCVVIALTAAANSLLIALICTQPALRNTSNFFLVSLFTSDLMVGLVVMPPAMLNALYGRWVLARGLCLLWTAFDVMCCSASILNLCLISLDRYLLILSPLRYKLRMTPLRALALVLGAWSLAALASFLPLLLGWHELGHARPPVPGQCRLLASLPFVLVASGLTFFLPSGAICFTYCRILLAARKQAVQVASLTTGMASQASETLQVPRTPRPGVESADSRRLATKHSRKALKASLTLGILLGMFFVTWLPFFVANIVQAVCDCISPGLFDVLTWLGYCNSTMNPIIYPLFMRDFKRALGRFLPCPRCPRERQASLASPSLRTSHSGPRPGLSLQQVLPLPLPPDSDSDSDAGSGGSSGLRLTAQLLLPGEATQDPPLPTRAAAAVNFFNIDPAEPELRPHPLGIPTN
test_name: Radioligand binding selectivity
pKi: −log10 of the molar value.
test_readout: pKi

For Cc1nn(-c2c(F)cccc2F)cc1CN1CCC2(CC1)OCC(F)(F)c1cc(Cl)sc12.O=C(O)C(O)C(O)C(=O)O [Example 2] , what is its reported pKi? < 5.23

* * *

experimental_target: Kappa Opioid (Homo sapiens, UniProt P41145)
Sequence (P41145 whole entry): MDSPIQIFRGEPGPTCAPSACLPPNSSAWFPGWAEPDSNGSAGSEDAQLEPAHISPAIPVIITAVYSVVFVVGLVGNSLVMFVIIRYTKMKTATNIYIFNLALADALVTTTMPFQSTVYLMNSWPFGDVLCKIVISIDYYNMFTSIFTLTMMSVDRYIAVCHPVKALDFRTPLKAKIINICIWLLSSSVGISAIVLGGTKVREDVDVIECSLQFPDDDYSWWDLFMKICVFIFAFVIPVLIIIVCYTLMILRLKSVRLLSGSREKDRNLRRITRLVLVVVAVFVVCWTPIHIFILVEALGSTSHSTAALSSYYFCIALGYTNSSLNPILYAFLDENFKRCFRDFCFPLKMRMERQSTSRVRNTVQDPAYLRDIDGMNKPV
test_name: Radioligand binding selectivity
test_readout: Ki

Fill in the recorded Ki for this compound, with Kappa Opioid (Homo sapiens, UniProt P41145) as test system: Cc1nn(-c2c(F)cccc2F)cc1CN1CCC2(CC1)OCC(F)(F)c1cc(Cl)sc12.O=C(O)C(O)C(O)C(=O)O [Example 2] > 458 nM
